Quick list: Concentration of the target in the solution measured after different incubation time per entry.
method-summary: Binary supramolecular self-assembly systems of polymer and target: guest concentration over incubation time (Comparative Example 2)
Type: physicochemical
assay-conditions: binary system with 0.5% polymer 102; incubation 3 h
experimental-endpoint: Concentration of the target in the solution measured after different incubation time (µg/mL)

{"columns": ["compound", "quantitative-readout"],
 "data": [
  ["CC1(C)CCC(CN2CCN(c3ccc(C(=O)NS(=O)(=O)c4ccc(NCC5CCOCC5)c([N+](=O)[O-])c4)c(Oc4cnc5[nH]ccc5c4)c3)CC2)=C(c2ccc(Cl)cc2)C1", 254.9],
  ["O=C1C[C@@H](c2ccc(O)cc2)Oc2cc(O)cc(O)c21", 389.1],
  ["O=C1[C@@H]2[C@H]3CC[C@H](C3)[C@@H]2C(=O)N1C[C@@H]1CCCC[C@H]1CN1CCN(c2nsc3ccccc23)CC1", 12.7],
  ["COc1cc2nccc(Oc3ccc(NC(=O)NC4CC4)c(Cl)c3)c2cc1C(N)=O", 26.2]
]}

* * *

method-summary: Binary supramolecular self-assembly systems of polymer and target: guest concentration over incubation time (Comparative Example 2)
Type: physicochemical
assay-conditions: binary system with 0.5% polymer 102; incubation 0.5 h
// bucketize Concentration of the target in the solution measured after different incubation time: bin A: < 60 µg/mL; bin B: ≥ 60 µg/mL and < 200 µg/mL; bin C: ≥ 200 µg/mL

{"columns": ["compound", "qualitative-label"],
 "data": [
  ["CC1=C[C@H](O)CC(C)(C)[C@H]1/C=C/C(C)=C/C=C/C(C)=C/C=C/C=C(C)/C=C/C=C(C)/C=C/C1=C(C)C[C@@H](O)CC1(C)C [Lutein, lutein]", "bin A"],
  ["CCCCC1OC(=O)c2ccccc21 (centres unmarked) [Butylphthalide]", "bin C"],
  ["COc1cc(/C=C/C(=O)CC(=O)/C=C/c2ccc(O)c(OC)c2)ccc1O [Curcumin]", "bin C"],
  ["O=C(O)[C@H]1O[C@@H](Oc2cc3oc(-c4ccc(O)cc4)cc(=O)c3c(O)c2O)[C@H](O)[C@@H](O)[C@@H]1O [Scutellarin, scutellarin]", "bin B"],
  ["CNC(=O)c1cc(Oc2ccc(NC(=O)Nc3ccc(Cl)c(C(F)(F)F)c3)cc2)ccn1 [Sorafenib]", "bin C"],
  ["C=C(C)[C@@H]1CCC(C)=C[C@H]1c1c(O)cc(CCCCC)cc1O [Cannabidiol]", "bin C"],
  ["CCOc1nc2cccc(C(=O)OC(C)OC(=O)OC3CCCCC3)c2n1Cc1ccc(-c2ccccc2-c2nnn[nH]2)cc1 (centres unmarked) [Candesartan Cilexetil, candesartan cilexetil]", "bin A"],
  ["Cc1ccc(-c2cc(C(F)(F)F)nn2-c2ccc(S(N)(=O)=O)cc2)cc1 [Celecoxib]", "bin A"],
  ["Cc1c(C)c2c(c(C)c1O)CC[C@@](C)(CCC[C@H](C)CCC[C@H](C)CCCC(C)C)O2 [Vitamin E, vitamin E]", "bin A"],
  ["Cc1cn(-c2cc(NC(=O)c3ccc(C)c(Nc4nccc(-c5cccnc5)n4)c3)cc(C(F)(F)F)c2)cn1 [Nilotinib]", "bin B"],
  ["COc1cc2nccc(Oc3ccc(NC(=O)NC4CC4)c(Cl)c3)c2cc1C(N)=O [Lenvatinib]", "bin B"],
  ["CCC(C)n1ncn(-c2ccc(N3CCN(c4ccc(OCC5COC(Cn6cncn6)(c6ccc(Cl)cc6Cl)O5)cc4)CC3)cc2)c1=O (centres unmarked) [Itraconazole, itraconazole]", "bin B"],
  ["CC(C)OC(=O)CCC/C=C\\C[C@@H]1[C@@H](/C=C/C(F)(F)COc2ccccc2)[C@H](O)C[C@@H]1O [Tafluprost, tafluprost]", "bin A"],
  ["CC1(C)CCC(CN2CCN(c3ccc(C(=O)NS(=O)(=O)c4ccc(NCC5CCOCC5)c([N+](=O)[O-])c4)c(Oc4cnc5[nH]ccc5c4)c3)CC2)=C(c2ccc(Cl)cc2)C1 [Venetoclax, venetoclax]", "bin B"],
  ["CNC(=O)c1ccc(N2C(=S)N(c3ccc(C#N)c(C(F)(F)F)c3)C(=O)C2(C)C)cc1F [Enzalutamide]", "bin B"],
  ["O=C1[C@H](CC[C@H](O)c2ccc(F)cc2)[C@@H](c2ccc(O)cc2)N1c1ccc(F)cc1 [Ezetimibe]", "bin B"],
  ["C=CC(=O)N1CCC[C@@H](n2nc(-c3ccc(Oc4ccccc4)cc3)c3c(N)ncnc32)C1 [Ibrutinib]", "bin B"],
  ["COC1=CC(=O)C[C@@H](C)[C@]12Oc1c(Cl)c(OC)cc(OC)c1C2=O [Griseofulvin, griseofulvin]", "bin A"],
  ["C=CC[C@@H]1/C=C(\\C)C[C@H](C)C[C@H](OC)[C@H]2O[C@@](O)(C(=O)C(=O)N3CCCC[C@H]3C(=O)O[C@H](/C(C)=C/[C@@H]3CC[C@@H](O)[C@H](OC)C3)[C@H](C)[C@@H](O)CC1=O)[C@H](C)C[C@@H]2OC [Tacrolimus]", "bin B"],
  ["CCOC(=O)C1=C(C)NC(C)=C(C(=O)OC)C1c1cccc(Cl)c1Cl (centres unmarked) [Felodipine]", "bin C"],
  ["O=C1C[C@@H](c2ccc(O)cc2)Oc2cc(O)cc(O)c21 [Naringenin]", "bin C"],
  ["O=C1[C@@H]2[C@H]3CC[C@H](C3)[C@@H]2C(=O)N1C[C@@H]1CCCC[C@H]1CN1CCN(c2nsc3ccccc23)CC1 [Lurasidone, lurasidone]", "bin A"],
  ["CCCNS(=O)(=O)Nc1ncnc(OCCOc2ncc(Br)cn2)c1-c1ccc(Br)cc1 [Macitentan]", "bin A"],
  ["CCc1cc2c(cc1N1CCC(N3CCOCC3)CC1)C(C)(C)c1[nH]c3cc(C#N)ccc3c1C2=O [Alectinib, alectinib]", "bin A"],
  ["CC1=C(/C=C/C(C)=C/C=C/C(C)=C/CO)C(C)(C)CCC1 [Vitamin A, vitamin A]", "bin B"],
  ["CCCSc1nc(N[C@@H]2C[C@H]2c2ccc(F)c(F)c2)c2nnn([C@@H]3C[C@H](OCCO)[C@@H](O)[C@H]3O)c2n1 [Ticagrelor]", "bin B"],
  ["COC(=O)[C@H](c1ccccc1Cl)N1CCc2sccc2C1 [Clopidogrel, clopidogrel]", "bin A"],
  ["CC#CC(=O)N1CCC[C@H]1c1nc(-c2ccc(C(=O)Nc3ccccn3)cc2)c2c(N)nccn12 [Acalabrutinib, acalabrutinib]", "bin C"]
]}
